# measuredOn: Sodium-dependent serotonin transporter (Rattus norvegicus)
# Sequence (P31652 whole entry): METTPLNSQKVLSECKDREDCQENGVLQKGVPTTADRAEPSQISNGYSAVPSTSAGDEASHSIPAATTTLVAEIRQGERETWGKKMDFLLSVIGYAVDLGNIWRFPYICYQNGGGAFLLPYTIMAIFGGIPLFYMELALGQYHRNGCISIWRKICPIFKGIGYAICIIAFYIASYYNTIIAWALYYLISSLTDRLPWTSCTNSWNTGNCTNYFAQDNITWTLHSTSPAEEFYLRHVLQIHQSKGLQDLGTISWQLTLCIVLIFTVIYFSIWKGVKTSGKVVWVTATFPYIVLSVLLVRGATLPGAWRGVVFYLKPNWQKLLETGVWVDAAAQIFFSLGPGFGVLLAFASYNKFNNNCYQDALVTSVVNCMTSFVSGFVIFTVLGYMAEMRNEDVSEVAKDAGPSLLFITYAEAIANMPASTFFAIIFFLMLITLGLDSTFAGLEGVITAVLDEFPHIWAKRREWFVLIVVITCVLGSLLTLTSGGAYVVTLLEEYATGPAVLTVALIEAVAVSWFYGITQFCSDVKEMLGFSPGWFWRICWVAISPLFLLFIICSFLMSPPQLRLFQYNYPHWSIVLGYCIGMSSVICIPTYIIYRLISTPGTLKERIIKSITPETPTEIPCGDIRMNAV
parameter: IC50 (µM)
Please state the figure in µM; there is no need to write the unit.

Read off the recorded IC50 for O=C(CCN[C@H]1CCN(c2ccc([N+](=O)[O-])cc2C(F)(F)F)C1)c1csc2ccccc12
7.02

---

# measuredOn: Sodium-dependent serotonin transporter (Rattus norvegicus)
# assayInfo: Displacement of [3H]5-HT from of SERT in rat midbrain homogenates at 10 uM after 5 mins by scintillation counting
# Type: tissue-based
Examples of molecules with documented inhibition follow.

Please review the entries below; each comes with its answer.
molecule: O=[N+]([O-])c1ccc(N2CCC(NCCC(O)c3csc4ccccc34)C2)cc1 (single isomer, unassigned)
inhibition: 49.2%
//
molecule: OC(CCN1CCC(N2CCOCC2)CC1)c1csc2ccccc12 (centres undefined)
inhibition: 63.6%
//
molecule: O=[N+]([O-])c1ccc(N2CCCN(CCC(O)c3csc4ccccc34)CC2)c(C(F)(F)F)c1 (centres undefined)
inhibition: 36%
//
molecule: O=C(CCNC1CCN(c2ccc([N+](=O)[O-])cc2C(F)(F)F)CC1)c1csc2ccccc12
inhibition: 62.8%

Give inhibition for N#Cc1ccc(N2CCC(NCCC(O)c3csc4ccccc34)CC2)cc1 (centres undefined) tested on Sodium-dependent serotonin transporter (Rattus norvegicus).
80.4%

System Sodium-dependent serotonin transporter (Rattus norvegicus). Read-out inhibition. Item N#Cc1ccc(N2CC[C@H](NCCC(=O)c3csc4ccccc34)C2)cc1 . Report value.
45.6%

State inhibition on Sodium-dependent serotonin transporter (Rattus norvegicus). Entry: O=C(CCN[C@H]1CCN(c2ccc([N+](=O)[O-])cc2C(F)(F)F)C1)c1csc2ccccc12
97.9%

Tell me its inhibition on Sodium-dependent serotonin transporter (Rattus norvegicus): N#Cc1ccc(N2CCN(CCC(=O)c3csc4ccccc34)CC2)cc1
38.2%

With Sodium-dependent serotonin transporter (Rattus norvegicus) as the test system, provide measured inhibition for this molecule: O=C(CCN[C@@H]1CCN(c2ccc([N+](=O)[O-])cc2)C1)c1csc2ccccc12
45.4%

Please tell me the measured inhibition for O=C(CCNC1CCN(c2ccc([N+](=O)[O-])cc2)CC1)c1csc2ccc(F)cc12 ; system: Sodium-dependent serotonin transporter (Rattus norvegicus).
35%

Quote inhibition with test system Sodium-dependent serotonin transporter (Rattus norvegicus) for O=C(CCN[C@H]1CCN(c2ccc([N+](=O)[O-])cc2)C1)c1csc2ccccc12
36.6%

Enter measured inhibition, system Sodium-dependent serotonin transporter (Rattus norvegicus), for the molecule shown: O=C(CCN1CCN(c2ccc([N+](=O)[O-])cc2)CC1)c1csc2ccc(F)cc12
16.3%

Lab note: record inhibition of N#Cc1ccc(N2CCCN(CCC(=O)c3csc4ccccc34)CC2)cc1 tested on Sodium-dependent serotonin transporter (Rattus norvegicus).
63.1%

# lookup: Sodium-dependent serotonin transporter (Rattus norvegicus) inhibition, key = O=C(CCN1CCN(c2ccc([N+](=O)[O-])cc2)CC1)c1csc2ccccc12
33.2%

State recorded inhibition with Sodium-dependent serotonin transporter (Rattus norvegicus), entry N#Cc1ccc(N2CCN(CCC(O)c3csc4ccccc34)CC2)cc1 (centres undefined) , no comment.
57.7%

Report inhibition from Sodium-dependent serotonin transporter (Rattus norvegicus) testing of O=C(CCN1CCCN(c2cnc3ccccc3n2)CC1)c1csc2ccccc12
58%
